Test system: Streptococcus pneumoniae
Assay: Antibacterial activity against Streptococcus pneumoniae R6 Tr10 harboring gyrA Ser81Tyr parC Ser79Tyr mutant gene by agar dilution method
Assay type: functional
The following compounds are listed with their measured MIC values.
Please reply with the bare figure in µg/mL and do not write the unit itself.

smiles-code: CCn1cc(C(=O)O)c(=O)c2cc(F)c(N3CCNCC3)cc21
test-result: 128

Next:
// C[C@@H]1CN(c2c(F)c(N)c3c(=O)c(C(=O)O)cn(C4CC4)c3c2F)C[C@H](C)N1 : MIC value = 16
